Sourced from ChEMBL document CHEMBL4837210

tested on: Escherichia coli; test: Antibacterial activity against penicillin-susceptible Escherichia coli ATCC 25922 assessed as inhibition of bacterial growth measured by broth microdilution method; type: functional; conditions: time 24 hrs

# Chemical smiles, MIC
data = [
    ("C[n+]1c2ccccc2c(/C=C/c2ccc(Br)cc2)c2ccccc21.[I-]", "64 µg/mL"),
    ("CCc1ccc(C#Cc2c3ccccc3[n+](C)c3ccccc23)cc1.[I-]", "> 64 µg/mL"),
    ("Cc1cccc(C#Cc2c3ccccc3[n+](C)c3ccccc23)c1.[I-]", "> 64 µg/mL"),
    ("C[n+]1c2ccccc2c(-c2ccc(OC(F)(F)F)cc2)c2ccccc21.[I-]", "> 64 µg/mL"),
    ("CCCCCCNc1c2ccccc2[n+](C)c2ccccc12.[Cl-]", "> 64 µg/mL"),
    ("C[n+]1c2ccccc2cc2ccccc21.[I-]", "> 64 µg/mL"),
]
